System: HOP-92 NSCLC
METHOD: NCI-60 one-dose screen, 48 h
RUN_CONDITIONS: 10 µM unless noted
Compounds without any hit were thinned out: in the full panel of roughly 83,000, 20% have a hit. Activity calls are given as the source filed them. How the source made its calls: active means growth percent below 10; inactive means the rest.
Answer with one of the outcomes given here: true (1) (active), false (0) (inactive)

* COc1ccc(Cn2cc3c(c2-c2cc(OC)c(OC)c(OC)c2)CCc2c(CO)noc2-3)cc1 | false (0)

In this assay, the call recorded for `CC(C)(C)OC(=O)N1CCN(CCn2cc(C(F)(F)F)c3c(Cl)ncnc32)CC1` was what? true (1)

In this assay, the call recorded for `COC(=O)Nc1nc2ccc(Sc3ccccc3)cc2[nH]1` was what? false (0)

In this assay, the call recorded for `O=C1COc2ccccc2C(=O)N1CCCCN1CCCCC1` was what? false (0)

In this assay, the call recorded for CCCCCCCCN(CCCCCCCC)CC(O)c1cc(-c2ccccc2)nc2ccc(OC)cc12 (stereo not given) was what? false (0)

In this assay, the call recorded for `C#C[C@@]1(O)[C@@H](CO)O[C@@H](n2cc(Br)c3c(Cl)ccnc32)[C@@H]1O` was what? true (1)

In this assay, the call recorded for `COc1cc2c(cc1OCCCCC(=O)Nc1ccc(-c3nc4ccccc4s3)cc1)N=C[C@@H]1CCCN1C2=O` was what? true (1)

In this assay, the call recorded for `c1ccc(-c2nc3sc(C(c4ccccc4)c4ccccc4)nn3c2-c2ccccc2)cc1` was what? false (0)

In this assay, the call recorded for `O=C(CSc1nnc(-c2ccc(Cl)cc2)o1)Nc1ccc(C(=O)/C=C/c2ccccc2)cc1` was what? false (0)

In this assay, the call recorded for `CCCCCCCCCCCCCCCCCCNCc1ccc(Cl)cc1` was what? true (1)

###

Tested on: MCF7 breast
METHOD: NCI-60 one-dose screen, 48 h
RUN_CONDITIONS: 10 µM unless noted
This is part of a sample that, as a whole, favours compounds with a hit. Of some 83,000 tested, about 20% had one in any assay. Calls of active or inactive are those of the source. The calls were made as follows: active = growth percent below 10; inactive = the rest.
Answer with one of the outcomes given here: active, inactive

Consider the following illustrative entries.
• CC(=O)N[C@@H](CNC(=O)c1cc(NC(=O)c2cc(NC(=O)c3cc(NC(=O)c4nccn4C)cn3C)cn2C)cn1C)CC(=O)Nc1cn(C)c(C(=O)Nc2cc(C(=O)Nc3cc(C(=O)Nc4cc(C(=O)NCCCN(C)CCCNC(=O)c5cccc(C(=O)O)c5)n(C)c4)n(C)c3)n(C)c2)n1 = inactive
• FC(F)(F)c1cccc([Si](F)(c2cccc(C(F)(F)F)c2)c2cccc(C(F)(F)F)c2)c1 = inactive
• Cc1cn(C2CC(N=[N+]=[N-])C(COP(=O)(O)OP(=O)(O)OP(=O)(O)O)O2)c(=O)[nH]c1=O (stereo not drawn) = inactive

In this assay, the call recorded for `Fc1ccc(/C=N/n2c(-c3cc(Cl)cc(Cl)c3Cl)nn(CNc3ccc(Cl)nn3)c2=S)cc1` was what? inactive

In this assay, the call recorded for `O=c1nc(N2CCOCC2)oc2c(-c3cccc4ccccc34)cccc12` was what? inactive

In this assay, the call recorded for `CSc1ccc(C(=O)C[n+]2cccc(C)c2)cc1` was what? inactive

In this assay, the call recorded for `Cc1cn(-c2cc(C(=O)Nc3cccc(-n4ccc5c(NC(=O)c6ccccc6)nccc54)c3)cc(C(F)(F)F)c2)cn1` was what? active

In this assay, the call recorded for `O=C(NCCNc1nccc(-c2c(-c3cccc(O)c3)nc3sccn23)n1)c1ccc(N2CCOCC2)c(C(F)(F)F)c1` was what? inactive
